Numbers sourced from paper PMC13286378.

Each entry below carries its reported Kd.
target-or-test-system: T1, SPN-4 RRM (3xFLAG::SPN-4 RRM::6xHis) (Caenorhabditis elegans, UniProt G5EF02 1-200)
T1 sequence: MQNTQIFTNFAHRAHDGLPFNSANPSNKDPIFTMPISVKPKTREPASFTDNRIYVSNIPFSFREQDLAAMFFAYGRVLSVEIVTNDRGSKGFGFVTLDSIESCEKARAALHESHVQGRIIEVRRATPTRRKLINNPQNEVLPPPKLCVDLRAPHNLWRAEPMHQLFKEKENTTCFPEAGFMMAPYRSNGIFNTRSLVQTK
protocol-text: EMSA; 10 mM Tris-HCl pH 7.5, 150 mM NaCl, 0.001% NP-40, 10% glycerol, 0.01 mg/ml tRNA, 0.025% Tween-20; 32 nM RNA, 50 nM-2.9 uM protein; 15 min, room temperature; 8%
conditions-used: protein: recombinant; tags: N-terminal 3xFLAG (MBP removed by TEV), C-terminal 6xHis; label: 5' Cy5
Numbers only here, please. The scale is nM.

[[record]]
binder = "UUAAUGCAUGCUUCCUGCACGCCCC (ssRNA) [lin-41(1023-1047)]"
obs_value = 285

[[record]]
binder = "AUUAGUAUUAUUAUUAUUGCAUGCUCUUACCUCAUCUCUC (ssRNA) [chs-1(40-79)]"
obs_value = 174

[[record]]
binder = "lin-41(995-1054) (ssRNA) RNA: GUGCCCUAGCGCUAAAUAUUGUUUUAUUUUAAUGCAUGCUUCCUGCACGCCCCUCCCCCU"
obs_value = 308


Data request: Value lookup for Kd; key = UUAAUGCAUGCUUCCUACAAACCCC (ssRNA) [lin-41(1023-1047) motif 1]
Data returned: 230

Data request: Please look up its Kd: UUAAUACAAACUUCCUGCACGCCCC (ssRNA) [lin-41(1023-1047) motif 2]
Data returned: 1640
